Target: T1, human B7-H4 extracellular domain (human, UniProt Q7Z7D3 29-258)
T1 construct: For SPR it says only human B7-H4 ECD; also called Hu B7-H4 ECD; huB7-H4 ECD
T1 sequence: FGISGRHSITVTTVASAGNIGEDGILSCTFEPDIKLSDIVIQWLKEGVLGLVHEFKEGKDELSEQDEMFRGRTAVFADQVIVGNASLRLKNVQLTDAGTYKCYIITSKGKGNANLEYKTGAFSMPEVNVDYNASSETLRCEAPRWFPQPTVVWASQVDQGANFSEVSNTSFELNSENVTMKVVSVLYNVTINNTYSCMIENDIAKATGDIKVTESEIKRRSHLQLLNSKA
Experiment: SPR Biacore 8K 25 C; mAb captured on anti-human Fc, huB7-H4 ECD analyte, 1:1 fit;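 further: antibodies tested as IgG1, running buffer HBS-EP+ at pH 7.4, rate constants and affinity from a 1:1 Langmuir model fit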
This section presents binders with their documented kon values.
Return type: number; implicit unit M⁻¹ s⁻¹.

Consider the reported kon for these binders:
Binder	Readout Value
B7-H4 antibody 0053 (antibody, human IgG1, kappa, V domains shown, also called 29G6) VH: QVQLQQWGAGLLKPSETLSLTCAVYGGPFSGYFWSWIRQPPGKGLEWIGEINHSGNTNYNPSLKSRVTISVDTSKNQFSLKLSSVTAADTAVYYCARAGGDYGFYYYYGMDVWGQGTTVTVSS VL: DIQLTQSPSTLSASVGDRVTITCRASQSISSWLAWYQQKPGKAPELLVYKASRLESGVPSRFSGSGSGTEFTLTISSLQPDDFATYYCQQYNSYFGGGTKVEIKR	434000
B7-H4 antibody 0047 (antibody, human IgG1, kappa, V domains shown, also called 7H7) VH: QVQLQQWGAGLLKPSETLPLTCAVYGGSFSGYYWNWIRQPPGKGLEWIGEINHSGSATYNPSLKSRVTISVDTSKNHFSLKLSSVTAADTAVYFCARGLYNWNVDHWGQGTLVTVSS VL: DIQMTQSPSSLSASVGDRVTITCRASQGIRNDLGWYQQKPGKAPKRLIYAASSLQSGVPSRFSGSGSGTEFTLTISSLQPEDFATYYCLQHNSYPRTFGGGTKVEIKR	168000

-- ask Annotate the binder B7-H4 antibody 0057 (antibody, human IgG1, kappa, V domains shown, also called 34A3) VH: EVQLLESGGGLVQPGGSLRLSCAASGFTFSSYAMSWVRQAPGKGLEWVSAISGRGGSTYYTDSVKGRFTISRDNSRNTLYLQMNILRAEDTAVYYCARDLQWFGESTLFDYWGQGTLVTVSS VL: DIQLTQSPSTLSASVGDRVTITCRASQSISAWLAWFQQKPGKAPKLLIYKASSLESGVPSRFSGSGSGTEFTLTISSLQPDDFATYYCQQYNSYSRSFGQGTKLEIKR with its measured kon.
-- reply 64100
